The reported numbers originate from ChEMBL document CHEMBL6096703.

# targetOrSystem: Poly [ADP-ribose] polymerase 1 (Homo sapiens)
# Sequence (P09874 whole entry): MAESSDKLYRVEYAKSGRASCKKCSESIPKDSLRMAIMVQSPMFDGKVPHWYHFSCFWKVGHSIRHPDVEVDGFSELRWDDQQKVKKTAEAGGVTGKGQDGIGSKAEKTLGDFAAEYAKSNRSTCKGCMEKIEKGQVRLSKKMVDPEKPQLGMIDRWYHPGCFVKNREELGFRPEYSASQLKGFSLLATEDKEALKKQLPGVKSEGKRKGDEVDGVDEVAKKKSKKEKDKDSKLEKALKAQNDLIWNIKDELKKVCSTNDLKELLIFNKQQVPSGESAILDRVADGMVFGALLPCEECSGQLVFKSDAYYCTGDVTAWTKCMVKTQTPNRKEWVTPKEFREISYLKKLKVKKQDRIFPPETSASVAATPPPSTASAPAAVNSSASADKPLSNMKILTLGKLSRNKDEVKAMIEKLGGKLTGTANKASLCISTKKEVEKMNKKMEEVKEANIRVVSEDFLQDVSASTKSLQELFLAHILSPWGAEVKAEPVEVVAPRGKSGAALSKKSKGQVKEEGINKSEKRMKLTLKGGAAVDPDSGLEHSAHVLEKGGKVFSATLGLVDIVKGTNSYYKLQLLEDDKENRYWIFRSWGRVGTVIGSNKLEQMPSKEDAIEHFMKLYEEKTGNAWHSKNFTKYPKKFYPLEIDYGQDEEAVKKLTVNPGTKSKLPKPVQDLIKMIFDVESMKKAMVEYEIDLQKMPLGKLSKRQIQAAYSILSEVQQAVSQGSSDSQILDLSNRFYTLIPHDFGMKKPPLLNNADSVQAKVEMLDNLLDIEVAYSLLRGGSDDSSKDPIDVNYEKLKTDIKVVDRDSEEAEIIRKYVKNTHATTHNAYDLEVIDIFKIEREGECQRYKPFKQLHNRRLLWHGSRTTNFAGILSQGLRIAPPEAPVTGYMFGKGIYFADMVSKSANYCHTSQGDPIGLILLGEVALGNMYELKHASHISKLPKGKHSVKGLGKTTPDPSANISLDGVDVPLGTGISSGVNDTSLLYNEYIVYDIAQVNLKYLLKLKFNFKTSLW
# assaySummary: Inhibition of PARP1 in wild type human A549 cells preincubated with compound for 1 hr followed by H2O2 addition and measured after 5 mins by PARylation inhibition assay
# Format: cell-based
measuredAttribute: IC50 (nM)
// units = nM; emit number, no label

[in] What value of IC50 has been recorded for this entry: CCc1cc2ncc(CN3CC=C(c4ccc(C#N)cn4)CC3)cc2[nH]c1=O
[out] 4.1

###

# targetOrSystem: Poly [ADP-ribose] polymerase 1 (Homo sapiens)
# assaySummary: Inhibition of PARP1 (unknown origin) at 1 nM preincubated with compound for 10 mins followed by DNA and NAD+ addition and measured after 60 mins by chemiluminescence based envision reader analysis relative to control
# experimentalParameters: time 70.0 min
Values of inhibition greater than or equal to 60% map to label 1; values below map to label 0.

Record excerpt, results attached:
chemicalSmiles | answerLabel
CCc1cc2ncc(CN3CC=C(c4cnccc4C(=O)NC)CC3)cc2[nH]c1=O | label 0
CCc1cc2ncc(CN3CC=C(c4cccnc4N)CC3)cc2[nH]c1=O | label 0
CCc1cc2ncc(CN3CC=C(c4ncc(C(=O)NC)nc4C)CC3)cc2[nH]c1=O | label 1
CCc1cc2ncc(CN3CC=C(c4ccc(C)c(F)c4)CC3)cc2[nH]c1=O | label 0
CCc1cc2ncc(CN3CC=C(c4cnc(C(=O)NC)nc4)CC3)cc2[nH]c1=O | label 0

[in] In plain terms: is recorded inhibition at least 60% for CCc1cc2ncc(CN3CC=C(c4ccc(OC)nc4C)CC3)cc2[nH]c1=O ?
[out] label 0

[in] In plain terms: is recorded inhibition at least 60% for CCc1cc2ncc(CN3CC=C(c4cnc(F)c(F)c4)CC3)cc2[nH]c1=O ?
[out] label 1

[in] In plain terms: is recorded inhibition at least 60% for CCc1cc2ncc(CN3CCN(c4ccc(C(=O)NC)nc4F)CC3)cc2[nH]c1=O ?
[out] label 1

[in] In plain terms: is recorded inhibition at least 60% for CNC(=O)c1ccc(N2CCN(Cc3cnc4cc(C)c(=O)[nH]c4c3)CC2)c(F)n1 ?
[out] label 1

[in] In plain terms: is recorded inhibition at least 60% for CCc1cc2ncc(CN3CC=C(c4cc(F)c(C)c(F)c4)CC3)cc2[nH]c1=O ?
[out] label 0

###

# assaySummary: Half life in rat at 2.5 mg/kg, po measured upto 96 hrs by LC-MS/MS analysis
# Assay type: ADME, organism-based
# experimentalParameters: in vivo
measuredAttribute: half-life (h)
// units = h; emit number, no label

[in] What value of half-life has been recorded for this entry: CCc1cc2ncc(CN3CC=C(c4ccc(C#N)cn4)CC3)cc2[nH]c1=O
[out] 47.4

###

# assaySummary: Half life in male Balb/c mouse at 1 mg/kg, iv measured upto 96 hrs by LC-MS/MS analysis
# Format: ADME, organism-based
# experimentalParameters: male, Balb/c, in vivo
measuredAttribute: half-life (h)
// units = h; emit number, no label

[in] What value of half-life has been recorded for this entry: CNC(=O)c1ccc(N2CCN(Cc3ccc4nc(C)c(=O)[nH]c4c3F)CC2)c(F)n1
[out] 14.7

###

# assaySummary: Clearance in rat at 2.5 mg/kg, po measured upto 96 hrs by LC-MS/MS analysis
# Type: ADME, organism-based
# experimentalParameters: in vivo
measuredAttribute: CL/F (mL/min/kg)
// units = mL/min/kg; emit number, no label

[in] What value of CL/F has been recorded for this entry: CCc1cc2ncc(CN3CC=C(c4ccc(C#N)cn4)CC3)cc2[nH]c1=O
[out] 0.167
